REPORTED METRIC: logP

logP measured on CCCCCOC(=O)c1ccc(O)cc1 = 3.65

---

EXPERIMENTAL PROTOCOL: method code SF-TN, from DOI: 10.1085/jgp.71.1.93, PMID: 621494
REPORTED METRIC: logP
Enter a number only.

// CCCCC(O)C(=O)O (stereo unspecified) : logP value = 0.81

---

REPORTED METRIC: logP
# answer = number (no unit)

# logP (compound: CCn1cc(C(=O)O)c(=O)c2cc3nc[nH]c3cc21 ) is 0.41

---

REPORTED METRIC: logP
Form rule: numeric answer, no unit written next to it.

For CCCCc1ccc(C(=O)O)cc1 the compound record lists logP as 3.7

---

REPORTED METRIC: logP
# respond with the number and nothing more

Sure, the documented logP for CCN(CC)C(=O)Cc1c(-c2ccc(OC)cc2)nn2c(C)cc(C)nc12 is 2.44

---

EXPERIMENTAL PROTOCOL: method code SF-GLC, from DOI: 10.1021/jm00366a019, PMID: 6644745
APPLIED CONDITIONS: pH 13.0
REPORTED METRIC: logD
Keep the answer to the number alone.

# logD of CNC1CC2c3ccccc3C1C2O (stereo unspecified) = 0.91

---

# logD per entry
EXPERIMENTAL PROTOCOL: method code SF-AS, from DOI: 10.1016/0378-5173(82)90004-7
APPLIED CONDITIONS: pH 3.0
// no unit string in output, number only

For this compound ( CC(C)=CCC1(C(C)C)C(=O)NC(=O)NC1=O ), measured logD is 2.23

For this compound ( CC1(C)C(=O)NC(=O)NC1=O ), measured logD is -0.44

logD measured on CC(C)=CCC1(C(C)(C)C)C(=O)NC(=O)NC1=O = 2.56

---

EXPERIMENTAL PROTOCOL: method code SF, from Korenman, I. M.; Klyukvina, T. D. (1972). Extraction of methylfurfural from aqueous solutions. Zh. Prikl. Khim., 45(11)2697-2699.
REPORTED METRIC: logP
# print the numeric value only

logP reading for Cc1ccc(C=O)o1 : 0.67

---

EXPERIMENTAL PROTOCOL: method code SF-RC,FL, from DOI: 10.1016/0006-2952(81)90006-x, PMID: 6456004
REPORTED METRIC: logP
Returns: the value as a bare number; no unit string appended.

// field: logP; key: NCCc1ccc(O)c(O)c1 ; value = -0.97

---

EXPERIMENTAL PROTOCOL: method code SF-LC/MS, from DOI: 10.1002/rcm.3594, PMID: 18543375
APPLIED CONDITIONS: pH 7.4
REPORTED METRIC: logD

Noted for c1ccc2[nH]cnc2c1 : its logD reads 1.53

---

REPORTED METRIC: logP
Just the number.

The compound listed as CCC12C=C(C(=O)OCCOC(C)=O)n3c4c(c5ccccc53)CCN(CCC1)C42 (stereo unspecified) has a reported logP of 4.5

---

EXPERIMENTAL PROTOCOL: method code SF-RC, from DOI: 10.1016/j.mibio.2003.09.009
APPLIED CONDITIONS: pH 7.4
REPORTED METRIC: logD
Write the value as a bare number.

What the record says about CN1CCc2cc(Cl)c(O)cc2C(c2cccc3ccoc23)C1 (stereo unspecified) : logD is 3

// data source = the SangsterLogP compilation
